# ASSAY: Extractable percent of unreacted silicone, second evaluation (cure rate with active agents)
# Format: physicochemical
# CONDITION LABEL: active agent added to Dispersion 1 aged 1 week at 45° C.; slope of extractable plot; lower values = higher reactivity
VALUE KIND: Cure Rate After 3 Min. (%)

Solved cases below.
O=C(O)c1cccnc1 = 43.3
Cn1c(=O)c2c(ncn2C)n(C)c1=O = 31.7

A: Clc1ccccc1C(c1ccccc1)(c1ccccc1)n1ccnc1
B: [Cl][Ag]
Of the pair A and B , name the member with the lesser recorded Cure Rate After 3 Min. (%). Lab log: write the label of the selected item as the result.
B

====

# ASSAY: Extractable percent of unreacted silicone, second evaluation (cure rate with active agents)
# Assay type: physicochemical
# CONDITION LABEL: active agent added to Dispersion 1 aged 1 week at 45° C.; slope of extractable plot; lower values = higher reactivity
VALUE KIND: Cure Rate After 120 Min. (%)

1: O=C(O)c1ccccc1O
2: Clc1ccccc1C(c1ccccc1)(c1ccccc1)n1ccnc1
Of the pair 1 and 2 , name the member with the lesser recorded Cure Rate After 120 Min. (%). Lab log: write the label of the selected item as the result.
2

A: [Cl][Ag]
B: O=C(O)c1cccnc1
Compare A and B by numeric Cure Rate After 120 Min. (%) and name the larger one. Lab log: write the label of the selected item as the result.
B
